- System: OVCAR-5 ovarian
- measurementNotes: NCI-60 one-dose screen, 48 h (100 = growth as untreated, 0 = no growth, -100 = all killed)
- studyConditions: 10 µM unless noted
This is part of a sample that, as a whole, favours compounds with a hit. Of some 83,000 tested, about 20% had one in any assay.

{"smilesRepresentation": "CCc1ccccc1-n1c(N)c(C#N)c(-c2ccc(N(C)C)cc2)c(C#N)c1=O", "target": "OVCAR-5 ovarian", "readoutUnits": "%", "growth": 97}
{"smilesRepresentation": "CN(C)CCNc1nc2ccccc2c2c1c1c(n2Cc2ccccc2)-c2ccccc2C1=O", "target": "OVCAR-5 ovarian", "readoutUnits": "%", "growth": -74.7}
{"smilesRepresentation": "Oc1ccc(CN2CCC(N3CCOCC3)CC2)c2cccnc12", "target": "OVCAR-5 ovarian", "readoutUnits": "%", "growth": 48.8}

###

Attribute: growth
- Test system: SN12C renal
- measurementNotes: NCI-60 one-dose screen, 48 h (100 = growth as untreated, 0 = no growth, -100 = all killed)
- studyConditions: 10 µM unless noted
The panel holds about 83,000 compounds, 20% with a hit somewhere; the sample as a whole holds those more often.

{"smilesRepresentation": "O=C1/C(=C\\c2c[nH]c3ccccc23)c2ccccc2N1c1c(Cl)cccc1Cl", "growth, %": -29.6}
{"smilesRepresentation": "O=C(O)c1ccc2c(c1Cl)C(=O)c1ccccc1C2=O", "growth, %": 98.8}
{"smilesRepresentation": "COc1cccc(C(=O)NCCNc2cc(-c3cn(-c4ccccc4)nc3-c3cccc(OC)c3)ccn2)c1", "growth, %": 74.4}
{"smilesRepresentation": "O=C(Nc1ccccc1Cl)Oc1ccc(-c2ccccc2)cc1", "growth, %": 98.9}

###

- Tested on: HCT-116 colon
- measurementNotes: NCI-60 one-dose screen, 48 h (100 = growth as untreated, 0 = no growth, -100 = all killed)
- studyConditions: 10 µM unless noted
The panel holds about 83,000 compounds, 20% with a hit somewhere; the sample as a whole holds those more often. Active and inactive are the calls of the source. The calls were made as follows: active = growth percent below 10; inactive = the rest.

{"smilesRepresentation": "O=[N+]([O-])c1ccc(N2c3ccncc3Sc3ccncc32)cc1", "growth": "91.6% (inactive)"}
{"smilesRepresentation": "NS(=O)(=O)c1ccc(-n2nc(C(=O)N/N=C\\c3ccc(F)cc3)cc2-c2ccc(Cl)cc2)cc1", "growth": "98% (inactive)"}
{"smilesRepresentation": "Cc1cccc(NC(=O)CSc2nc3ccccc3[nH]2)c1", "growth": "107% (inactive)"}

###

- System: PC-3 prostate
- measurementNotes: NCI-60 one-dose screen, 48 h
- studyConditions: 10 µM unless noted
This is part of a sample that, as a whole, favours compounds with a hit. Of some 83,000 tested, about 20% had one in any assay. The source made the active and inactive calls. The calls were made as follows: active = growth percent below 10; inactive = the rest.
Classes used: 1 = active, 0 = inactive

{"smilesRepresentation": "N/C(=N/N=C/c1ccccc1)N/N=C\\c1ccccc1", "answerLabel": 0}
{"smilesRepresentation": "O=c1ccn2nc3ccccc3c2[nH]1", "answerLabel": 0}
{"smilesRepresentation": "COc1ccc2c(c1)C(=O)/C(=C/c1cccc(OCC(=O)Nc3nc(C)c(C)s3)c1)O2", "answerLabel": 1}

###

- Tested on: HCC-2998 colon
- measurementNotes: NCI-60 one-dose screen, 48 h (100 = growth as untreated, 0 = no growth, -100 = all killed)
- studyConditions: 10 µM unless noted
About 83,000 compounds went through this panel and 20% of them were active in at least one assay; those are over-represented in the sample as a whole. The source made the active and inactive calls. The calls were made as follows: active = growth percent below 10; inactive = the rest.
measuredProperty: growth

{"compound": "O=c1[nH]nc(-c2ccccc2)c2c(-c3ccccc3)onc12", "measuredProperty": "growth", "valueObserved": "35.1% (inactive)"}
{"compound": "NCCCNc1nc2ccccc2c2c(=O)c3cccc(Cl)c3sc12", "measuredProperty": "growth", "valueObserved": "-94.1% (active)"}
{"compound": "COc1ccc2oc3c(C)c4c(c(C)c3c2c1)C(=O)N(Cc1ccccc1)C4=O", "measuredProperty": "growth", "valueObserved": "102% (inactive)"}
{"compound": "COCCc1ccc(OCC(O)CNC(C)C)cc1 (stereo not given)", "measuredProperty": "growth", "valueObserved": "102% (inactive)"}
{"compound": "Clc1cccc(Cl)c1/C=C/c1cc(/C=C/c2c(Cl)cccc2Cl)[nH]n1", "measuredProperty": "growth", "valueObserved": "35.1% (inactive)"}
{"compound": "COc1cc(C(=O)c2cc(C)c3[nH]c4ccc(Cl)cc4c3c2C)cc(OC)c1OC", "measuredProperty": "growth", "valueObserved": "14.2% (inactive)"}
{"compound": "COc1ccc(-c2ccc3c(c2)sc2nc(-c4ccc(F)cc4)cn23)cc1", "measuredProperty": "growth", "valueObserved": "29.3% (inactive)"}
{"compound": "Cc1ccccc1NC(=O)N/C(N)=N/c1nc(C)c(C)s1", "measuredProperty": "growth", "valueObserved": "22.1% (inactive)"}
{"compound": "O=c1cc(C2NNC(=S)N2)c2ccc3ccccc3c2o1 (stereo not given)", "measuredProperty": "growth", "valueObserved": "113% (inactive)"}
{"compound": "CC(C)(C)n1cc(-c2ccnc(NCCCNS(=O)(=O)c3ccccc3)c2)c(-c2ccccc2)n1", "measuredProperty": "growth", "valueObserved": "78.1% (inactive)"}
{"compound": "COc1ccc(NC(=O)CSc2nnc(-c3cc(-c4ccccc4)nc4ccccc34)n2-c2ccccc2)cc1", "measuredProperty": "growth", "valueObserved": "107% (inactive)"}
{"compound": "CCSC1=NC2C(N(CC)C(=O)N2CC)N1/N=C/C=C/c1ccccc1[N+](=O)[O-] (stereo not given)", "measuredProperty": "growth", "valueObserved": "11% (inactive)"}
{"compound": "O=c1c2c3c(sc2n2c(-c4cc(-c5ccccc5)nn4-c4ccccc4)nnc2n1Cc1ccccc1)CCCC3", "measuredProperty": "growth", "valueObserved": "98.8% (inactive)"}
{"compound": "CCCCCCCCCCCCCCCCCC1=NCCN1CCOC1=C(Cl)C(=O)c2ccccc2C1=O", "measuredProperty": "growth", "valueObserved": "100% (inactive)"}
{"compound": "COc1ccc2cc(-c3cc(OC)c(OC)c(OC)c3)c(=O)oc2c1", "measuredProperty": "growth", "valueObserved": "86.6% (inactive)"}
{"compound": "CCN(CC)CCN1CC(O)=C(c2nc(-c3ccc(Cl)cc3)cs2)C1=N", "measuredProperty": "growth", "valueObserved": "-70.7% (active)"}
{"compound": "Cn1ccc2c(c1=O)C(=O)c1nccc3c1c-2nc1ccccc13", "measuredProperty": "growth", "valueObserved": "-96.2% (active)"}
{"compound": "COc1ccc(N=C(c2ccccc2)C2C(=O)c3ccccc3C2=O)cc1", "measuredProperty": "growth", "valueObserved": "112% (inactive)"}
{"compound": "Cc1ccc(Cl)c(NS(=O)(=O)c2ccc(-c3cnc(C4CC4)o3)cc2)c1", "measuredProperty": "growth", "valueObserved": "26.8% (inactive)"}
{"compound": "COc1cc2nc(Cl)nc(Nc3ccc(S(=O)(=O)Nc4nccs4)cc3)c2cc1OC", "measuredProperty": "growth", "valueObserved": "72.9% (inactive)"}
{"compound": "N#C/C(=C\\c1ccc2c(c1)OCO2)n1nnc2cc(F)c(F)cc21", "measuredProperty": "growth", "valueObserved": "105% (inactive)"}
{"compound": "CCN(CC)Cc1cccc(C(=O)OC)c1", "measuredProperty": "growth", "valueObserved": "102% (inactive)"}
{"compound": "COc1nc2c(c(=O)n1C)CN(c1ccccc1)C(=O)CN2C", "measuredProperty": "growth", "valueObserved": "90.4% [100 µM] (inactive)"}
{"compound": "COc1cc2ncn3c(=O)c4c5c(sc4nc3c2cc1OC)CCCC5", "measuredProperty": "growth", "valueObserved": "102% (inactive)"}
{"compound": "CCn1c(C)nc2cc(C(N)=O)ccc21", "measuredProperty": "growth", "valueObserved": "96.9% (inactive)"}
{"compound": "Cc1cccc(NC(=O)CSc2nc3ccccc3[nH]2)c1", "measuredProperty": "growth", "valueObserved": "102% (inactive)"}
{"compound": "COc1ccc(-c2cc(-c3cc(OC)ccc3OC)nc(SCC(=O)c3ccccc3)c2C#N)cc1", "measuredProperty": "growth", "valueObserved": "108% (inactive)"}
{"compound": "COc1ccc(C2C(c3nn[nH]n3)=C(N)Oc3c2ccc2ccccc32)cc1 (stereo not given)", "measuredProperty": "growth", "valueObserved": "97.7% (inactive)"}
{"compound": "COc1cc(C2NC(=O)c3ccccc3N2)ccc1OCCCCCOc1c(OC)cc(C2=NOC(c3cc(OC)c(OC)c(OC)c3)C2)cc1OC (stereo not given)", "measuredProperty": "growth", "valueObserved": "80.5% (inactive)"}
{"compound": "O=C(Nc1ccc(Nc2ccncc2)cc1)c1ccc(C(=O)Nc2ccc(Nc3ccncc3)cc2)cc1", "measuredProperty": "growth", "valueObserved": "87% (inactive)"}
